- target_entity: human ADAMTS4 (Homo sapiens (Human))
- Sequence (O75173 213-837): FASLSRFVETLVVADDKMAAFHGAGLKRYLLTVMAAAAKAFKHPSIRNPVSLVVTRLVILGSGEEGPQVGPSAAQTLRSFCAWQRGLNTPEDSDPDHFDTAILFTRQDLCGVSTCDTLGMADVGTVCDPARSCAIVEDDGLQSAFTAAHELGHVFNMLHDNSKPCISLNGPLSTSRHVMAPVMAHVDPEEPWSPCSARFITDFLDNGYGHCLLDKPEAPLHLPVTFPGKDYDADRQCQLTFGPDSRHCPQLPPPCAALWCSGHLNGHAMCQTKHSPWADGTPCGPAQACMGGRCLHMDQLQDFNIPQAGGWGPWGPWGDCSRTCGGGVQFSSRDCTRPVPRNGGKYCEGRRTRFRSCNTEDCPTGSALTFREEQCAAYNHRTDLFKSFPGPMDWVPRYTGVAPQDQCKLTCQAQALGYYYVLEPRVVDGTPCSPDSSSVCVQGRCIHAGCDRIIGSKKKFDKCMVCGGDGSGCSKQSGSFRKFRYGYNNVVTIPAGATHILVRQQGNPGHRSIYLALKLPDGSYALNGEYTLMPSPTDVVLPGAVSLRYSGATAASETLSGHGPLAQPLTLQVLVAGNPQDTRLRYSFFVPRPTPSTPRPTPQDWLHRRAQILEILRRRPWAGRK
- assay_explanation: hADAMTS-4 TBIS-1 cleavage assay, Protocol 2
- Format: biochemical
- study_conditions: Protocol 2; 180 min at 37° C.; read-out: ADAMTS4 potency IC50
pIC50: −log10 of the molar value.
Task for the reader: assign each of the following compounds its reported pIC50.

Examples with their reported pIC50 follow.
compound	pIC50
COc1cc(N2CCN(C(=O)CC[C@H]3NC(=O)NC3=O)CC2)cc(OC)c1Cl	< 7.00
COc1cc(N2CCN(C(=O)CC[C@@]3(C)NC(=O)NC3=O)CC2)cc(F)c1F	< 7.00
COc1cc(N2CCN(C(=O)CC[C@@]3(C)NC(=O)NC3=O)CC2C(F)(F)F)ccc1Cl (some centres unmarked)	< 7.00
COc1cc(N2CCN(C(=O)CC[C@H]3NC(=O)NC3=O)C[C@@H]2C)ccc1Cl	< 7.00
COc1cc(N2CCN(C(=O)CC[C@@]3(C)NC(=O)NC3=O)C[C@@H]2C)cc(Cl)c1F	< 7.00

Value sought for every listed compound: pIC50.
1. COc1cc(N2CCN(C(=O)CC[C@H]3NC(=O)NC3=O)CC2)c(C)cc1Cl
2. COc1cc(N2CCN(C(=O)CCC3(C)NC(=O)NC3=O)C[C@@H]2C)ccc1Cl (some centres unmarked)
3. COc1cc(N2CCN(C(=O)CC[C@@]3(C)NC(=O)NC3=O)C[C@@H]2C)cc(N(C)C)c1Cl
4. COc1cc(N2CCN(C(=O)CC[C@H]3NC(=O)NC3=O)CC2)cc(Cl)c1F
5. COc1cc(N2CCN(C(=O)CCC3(C)NC(=O)NC3=O)CC2)cc(F)c1F (centres unmarked)
6. COc1cc(N2CCN(C(=O)CCC3(C)NC(=O)NC3=O)C[C@@H]2C)c(C)cc1Cl (some centres unmarked)
7. CCc1cc(N2CCN(C(=O)[C@@H](C)C[C@@]3(COC)NC(=O)NC3=O)C[C@@H]2C)ccc1Cl (stereo in doubt)
8. CCOc1cc(N2CCN(C(=O)CC[C@@]3(C)NC(=O)NC3=O)CC2)cc(OC)c1Cl

< 7.00
< 7.00
< 7.00
< 7.00
< 7.00
< 7.00
< 7.00
< 7.00

For the 4 compounds below, give their pIC50 values.
1. COc1cc(N2CCN(C(=O)CC[C@@]3(C)NC(=O)NC3=O)C[C@@H]2C(C)C)ccc1Cl
2. COc1cc(Cl)c(C)cc1N1CCN(C(=O)CCC2(C)NC(=O)NC2=O)CC1 (centres unmarked)
3. C[C@H]1CN(C(=O)CC[C@@]2(C)NC(=O)NC2=O)CCN1c1ccc(Cl)c(OC(F)(F)F)c1
4. CCc1cc(N2CCN(C(=O)CC[C@@]3(C)NC(=O)NC3=O)CC2)ccc1Cl

["< 7.00", "< 7.00", "< 7.00", "< 7.00"]

* * *

Assay system rnADAMTS-5 (1-564-6H) (Rattus norvegicus (Rat)); read-out recorded as IC50.

// solved cases for IC50 follow
molecule	IC50
COc1cc(N2CCN(C(=O)CCC3(C)NC(=O)NC3=O)C[C@@H]2C)c(C)cc1Cl (some centres unmarked)	> 100 nM
COc1cccc(N2CCN(C(=O)CCC3(c4ccccn4)NC(=O)NC3=O)CC2)c1 (centres unmarked)	> 100 nM
COc1cc(N2CCN(C(=O)CCC3(C)NC(=O)NC3=O)CC2)cc(F)c1F (centres unmarked)	> 100 nM
COc1cc(Cl)cc(N2CCN(C(=O)CCC3(C)NC(=O)NC3=O)CC2)c1 (centres unmarked)	> 100 nM
COc1cc(N2CCN(C(=O)CCC3(C4CC4)NC(=O)NC3=O)C[C@@H]2C)cc(F)c1F (some centres unmarked)	0.001 to 25 nM
COc1cc(N2CCN(C(=O)CC[C@H]3NC(=O)NC3=O)CC2)c(C)cc1Cl	> 100 nM

Hi team, please reply with IC50 for each item in this list.
1. COc1cc(N2CCN(C(=O)CCC3(C)NC(=O)NC3=O)C[C@@H]2C)ccc1Cl (some centres unmarked)
2. COc1cc(N2CCN(C(=O)CCC3(C4CC4)NC(=O)NC3=O)CC2)ccc1F (centres unmarked)

1: 50 to 100 nM; 2: > 100 nM

Give IC50 for all molecules that follow.
1. COc1cc(N2CCN(C(=O)CC[C@H]3NC(=O)NC3=O)C[C@@H]2C)c(C)cc1Cl
2. COc1cc(N2CCN(C(=O)[C@@H](C)C[C@@]3(c4ccccn4)NC(=O)NC3=O)CC2)cc(F)c1F
3. COc1cc(F)cc(N2CCN(C(=O)[C@@H](C)C[C@@]3(C4CC4)NC(=O)NC3=O)CC2)c1

["> 100 nM", "0.001 to 25 nM", "0.001 to 25 nM"]

Below are 6 molecules. Give each one its IC50.
1. COc1cc(F)cc(N2CCN(C(=O)[C@H](C)C[C@@]3(C4CC4)NC(=O)NC3=O)CC2)c1 (stereo in doubt)
2. COc1cc(N2CCN(C(=O)CCC3(C)NC(=O)NC3=O)CC2)cc(F)c1Cl (centres unmarked)
3. COc1cc(N2CCN(C(=O)CCC3(C)NC(=O)NC3=O)C[C@@H]2C)cc(Cl)c1F (some centres unmarked)
4. COc1cc(F)cc(N2CCN(C(=O)CCC3(C)NC(=O)NC3=O)CC2)c1 (centres unmarked)
5. COc1cc(N2CCN(C(=O)CCC3(c4cccnc4)NC(=O)NC3=O)CC2)cc(F)c1F (centres unmarked)
6. COc1cc(N2CCN(C(=O)[C@@H](C)C[C@@]3(C)NC(=O)NC3=O)C[C@@H]2C)cc(F)c1F (mixture of isomers)

1: > 100 nM; 2: 50 to 100 nM; 3: > 100 nM; 4: > 100 nM; 5: 50 to 100 nM; 6: 0.001 to 25 nM

* * *

In what follows, each item is paired with its IC50 for human ADAMTS6 (Homo sapiens (Human), UniProt Q9UKP5).

Example cases with answers are listed next.
compound	IC50
COc1cc(N2CCN(C(=O)CC[C@@]3(C4CC4)NC(=O)NC3=O)C[C@@H]2C)cc(F)c1F [Cpd 37]	0.001 to 25 nM
COCC1(CC(C)C(=O)N2CCN(c3ccc(Cl)c(OC)c3)[C@@H](C)C2)NC(=O)NC1=O (mixture of isomers) [Cpd 47]	0.001 to 25 nM
COc1c(Cl)cccc1N1CCN(C(=O)CC[C@@]2(C)NC(=O)NC2=O)C[C@@H]1C [Cpd 69]	> 100 nM

Now look at this entry.
Consider the compound shown here: COC[C@]1(C[C@H](C)C(=O)N2CCN(c3cc(F)c(F)c(OC)c3)CC2)NC(=O)NC1=O [Cpd 59] What is its recorded IC50? 0.001 to 25 nM

* * *

Can you tell me IC50 for the items I'm about to list?
- target_entity: human ADAMTS6 (Homo sapiens (Human))
- Sequence (Q9UKP5 other isoform, or with tags, fused parts or gaps): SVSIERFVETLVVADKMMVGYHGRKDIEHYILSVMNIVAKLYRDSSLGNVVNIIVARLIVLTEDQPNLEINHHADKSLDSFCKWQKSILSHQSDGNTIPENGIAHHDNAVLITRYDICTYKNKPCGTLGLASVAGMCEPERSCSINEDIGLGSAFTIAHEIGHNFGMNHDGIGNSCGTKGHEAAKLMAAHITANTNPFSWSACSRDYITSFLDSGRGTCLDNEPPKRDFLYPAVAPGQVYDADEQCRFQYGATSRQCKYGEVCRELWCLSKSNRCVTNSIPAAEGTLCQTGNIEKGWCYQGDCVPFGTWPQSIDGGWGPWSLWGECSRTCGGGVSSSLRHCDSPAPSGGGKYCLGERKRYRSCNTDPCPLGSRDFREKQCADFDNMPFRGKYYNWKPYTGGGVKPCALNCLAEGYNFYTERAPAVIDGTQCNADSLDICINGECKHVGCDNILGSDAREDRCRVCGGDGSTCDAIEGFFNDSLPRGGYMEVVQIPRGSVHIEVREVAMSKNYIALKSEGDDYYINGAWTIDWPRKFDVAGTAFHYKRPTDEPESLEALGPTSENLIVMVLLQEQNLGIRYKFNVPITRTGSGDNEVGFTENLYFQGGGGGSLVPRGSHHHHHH

Would you please look over these solved cases?
molecule	IC50
COc1cc(N2CCN(C(=O)[C@@H](C)C[C@@]3(c4ccccn4)NC(=O)NC3=O)C[C@@H]2C)cc(F)c1F (stereo in doubt)	0.001 to 25 nM
COc1ccc(C)c(N2CCN(C(=O)CCC3(C)NC(=O)NC3=O)C[C@@H]2C)c1 (stereo partly shown)	> 100 nM
COc1cc(N2CCN(C(=O)[C@@H](C)C[C@@]3(C)NC(=O)NC3=O)CC2)cc(F)c1Cl	0.001 to 25 nM

As a next step, examine the molecule that follows.
Would you kindly share the measured IC50 for "COC[C@]1(C[C@H](C)C(=O)N2CCN(c3cc(F)c(Cl)c(OC)c3)CC2)NC(=O)NC1=O" ? 0.001 to 25 nM

* * *

- target_entity: human ADAMTS-5 (Homo sapiens (Human), UniProt Q9UNA0)
- Sequence (Q9UNA0 262-930): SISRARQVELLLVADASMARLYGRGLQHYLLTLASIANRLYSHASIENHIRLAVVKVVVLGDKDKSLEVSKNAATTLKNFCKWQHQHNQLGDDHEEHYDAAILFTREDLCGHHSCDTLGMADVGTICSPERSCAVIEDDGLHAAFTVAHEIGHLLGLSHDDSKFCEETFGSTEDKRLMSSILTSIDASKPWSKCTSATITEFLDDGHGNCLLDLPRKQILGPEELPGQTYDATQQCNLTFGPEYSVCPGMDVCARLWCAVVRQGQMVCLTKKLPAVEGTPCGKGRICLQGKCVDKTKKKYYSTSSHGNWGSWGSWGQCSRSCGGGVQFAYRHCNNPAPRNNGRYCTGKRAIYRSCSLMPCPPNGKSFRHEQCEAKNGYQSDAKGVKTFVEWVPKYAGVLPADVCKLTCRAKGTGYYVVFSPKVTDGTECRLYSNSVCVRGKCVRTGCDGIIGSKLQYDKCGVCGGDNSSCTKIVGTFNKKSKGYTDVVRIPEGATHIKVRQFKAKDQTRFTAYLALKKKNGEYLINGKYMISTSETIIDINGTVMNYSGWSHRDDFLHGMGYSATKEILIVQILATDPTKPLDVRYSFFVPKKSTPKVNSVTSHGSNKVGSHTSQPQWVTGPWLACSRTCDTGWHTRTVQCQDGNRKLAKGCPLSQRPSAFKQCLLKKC
- assay_explanation: hADAMTS-5 TBIS-1 cleavage assay, Protocol 3
- Type: biochemical
- study_conditions: 90 min at 37° C., read-out: hADAMTS-5 potency IC50
pIC50: −log10 of the molar value.
measured_property: pIC50

compound	result
COc1ccc(Cl)cc1N1CCN(C(=O)CC[C@@]2(C)NC(=O)NC2=O)C[C@@H]1C [Cpd 91]	< 7.00
COc1cc(N2CCN(C(=O)CCC3(c4cccnc4)NC(=O)NC3=O)CC2)cc(F)c1F (stereo not shown) [Cpd 28]	< 7.00
COc1cc(F)cc(N2CCN(C(=O)[C@@H](C)C[C@@]3(C)NC(=O)NC3=O)CC2)c1 [Cpd 27]	7.30 to 7.60
COc1cc(N2CCN(C(=O)[C@@H](C)C[C@@]3(CN4CCC(F)(F)C4)NC(=O)NC3=O)CC2)cc(F)c1F (stereo in doubt) [Cpd 52]	7.00 to 7.30
CCc1cc(N2CCN(C(=O)[C@@H](C)C[C@@]3(COC)NC(=O)NC3=O)C[C@@H]2C)cc(OC)c1Cl (mixture of isomers) [Cpd 117]	7.00 to 7.30
COc1cc(N2CCN(C(=O)CC[C@@]3(C)NC(=O)NC3=O)CC2)cc(C)c1Cl [Cpd 112]	< 7.00

From here, focus on the item given below.
Quick one: pIC50 of COc1cc(N2CCN(C(=O)CCC3(C)NC(=O)NC3=O)C[C@@H]2C)cc(Cl)c1F (stereo partly shown) [Cpd 53] ? 7.00 to 7.30
